test system: HAP1 MTAP-intact cell line; assay: SDMA in-cell western assay, HAP1 MTAP-intact; conditions: Homo sapiens, HAP1, read-out: Hap1 MTAP intact IC50, SDMA in-cell western, HAP1 MTAP-intact cell line
pIC50: −log10 of the molar value.
measured.attribute: pIC50

C[C@H]1CC[C@H](c2cccc(OC[C@H](C)N(C)C)c2)N(C(=O)C(=O)Nc2cnc(N)c3cn[nH]c23)C1 : 7.30 to 8.30
C[C@@H]1CC[C@H](c2ccnn2C)N(C(=O)C(=O)Nc2cnc(N)c3cn[nH]c23)C1 : < 7.30
CC(CN1CCCC1)c1nc2cc([C@H]3CC[C@H](C)CN3C(=O)C(=O)Nc3cncc4cn[nH]c34)ccc2s1 (stereo partly shown) : < 7.30
C[C@H]1CC[C@H](c2ccc3cc(C#N)c(C4CCN(C)CC4)nc3c2)N(C(=O)C(=O)Nc2cncc3cn[nH]c23)C1 : < 7.30
C[C@H]1CC[C@H](c2cc(F)c(F)c(F)c2)N(C(=O)C(=O)Nc2cnc(N)c3cn[nH]c23)C1 : < 7.30

*Q* Retrieve pIC50 measured for C[C@H]1CC[C@H](c2ccc3cn([C@@H]4CCN(C)C[C@H]4C)nc3c2)N(C(=O)C(=O)Nc2cncc3cn[nH]c23)C1 (single isomer, unassigned) and print it.
*A* < 7.30

*Q* Retrieve pIC50 measured for C[C@H]1CC[C@H](c2ccc3nn(C)cc3c2)N(C(=O)C(=O)Nc2cnc(N)c3cn[nH]c23)C1 and print it.
*A* < 7.30

*Q* Retrieve pIC50 measured for CNc1ncc(NC(=O)C(=O)N2C[C@@H](C)CC[C@@H]2c2ccc3scnc3c2)c2[nH]ncc12 and print it.
*A* < 7.30

*Q* Retrieve pIC50 measured for C[C@H]1CC[C@H](c2ccc3sc([C@@H](C)CN(C)C)nc3c2)N(C(=O)C(=O)Nc2cncc3c(N)nccc23)C1 (relative stereo) and print it.
*A* < 7.30

*Q* Retrieve pIC50 measured for C[C@H]1CC[C@H](c2ccc3sc([C@@H](C)N(C)C)nc3c2)N(C(=O)C(=O)Nc2cncc3cn[nH]c23)C1 (single isomer, unassigned) and print it.
*A* < 7.30

*Q* Retrieve pIC50 measured for C[C@H]1CC[C@H](c2ccc3nn(C4CCN(C)CC4)cc3c2)N(C(=O)C(=O)Nc2cncc3c(N)nccc23)C1 and print it.
*A* < 7.30
